// provenance: patent US20220306762A1

molecular target: T1, His-tagged human CD38 (ACRO Biosystems cat #CD8-H5224) (human, UniProt P28907 43-300); assay: SPR, captured scFv-Fc, His-CD38 analyte;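 note: SPR on a Carterra LSA, scFv-Fc captured by anti-human Fc on HC30M chip, His-tagged CD38 (human, mouse, cynomolgus) flowed as analyte in eight 1:2 steps from 400 nM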
T1 construct: bought recombinant protein with His tag
pKd: −log10 of the molar value.
Would you mind labelling by pKd? At or over 8 is 1, under is -1.

Illustrative cases are given below, each with its answer.
40566p1.B11 (scFv, V domains shown, tested as scFv-Fc supernatant) VH: DVQLVESGGGLVRPGESLRLSCAASGFTFDNYDMTWVRQAPGEGLEWVSFISSRGTFTYYTDSVKGRFTISRDNSKNTLYLQMNSLRAEDTAIYYCAKDSGEYYFFDYWGLGTLVTVSS VL: EIVMTQSPATLSVSPGERATFSCRASQSVNSKLAWYQQKPGQAPRLLIYGASRRATGIPDRFSESGSGTEFTLTISSLQSEDFAVYYCQQYHDWPPLTFGGGTKVEIK ... -1
40769p1.1.A4 (scFv, V domains shown, tested as scFv-Fc supernatant) VH: EVQLLESGGGLVQPGGSLRLSCTASGITFSRFNMFWVRQAPGKGLEFVASIRDDGSWTYYADSVKGRFTISRDNSKNTLYLQMNSLRAEDTAVYYCAKDYNSKDFIYHYVMDVWGQGTTVTVSS VL: QSVLTQPPSASGTPGQRVTISCSGRNSNIGNNVVNWYQQLPGTAPKLLIYKDDQRPSGVPDRFSGSKSGTSASLAISGLQSEDEADYYCSTWDDSLNGWVFGGGTKLTVL ... -1
40566p1.C9 (scFv, V domains shown, tested as scFv-Fc supernatant) VH: DVQLVESGGGVVRPGESLRLSCAASGFTFDNYDMTWVRQAPGEGLEWVSFISSRGTFTYYTDSVKGRFTISRDNSKNTLYLQMNSLRAEDTAIYYCTKDSGEYYFFDYWGLGTLVTVSS VL: ETVMTQSPATLSVSPGERATFSCRASQSVNSKLAWYQQKPGQAPRLLIYDASRRATGIPDRFSGSGSGTEFTLTISSLQSEDFAVYFCQQYYDWPPLTFGGGTKVEIK ... 1
40769p1.1.G5 (scFv, V domains shown, tested as scFv-Fc supernatant) VH: EVQLLESGGGFVQPGGSLRLSCAASGFNFNNAWMNWVRQAPGKGLEWVGIINGDGTNTYYADSVKGRFTISRDNSKNTLYLQMSSLRAEDTAIYYCARDNKLNDYYYAMDVWGQGTTVTV VL: QSVLTQPSSASGTPGQRVTISCSGGSSNIHANYVYWYQQLPGTAPKLLIYRNSQRPSGVPDRFSGSKSGTSASLAISGLQSEDEADYYCGTWDNILNVWVFGGGTKLTVL ... 1
40596p1.H7 (scFv, V domains shown, tested as scFv-Fc supernatant) VH: EVQLLESGGGLVQPGGSLRLSCAASGFDFSTYAMTWVRQAPGKGLEWVAGNGWSGSFTYYADSVKGRFTVSRDNSKNTLYLQMNSLRAEDTAVYYCTRNPGFGEMDVWGQGTTVTVSS VL: EIVLTQSPGTLRLSPGERATLSCRASQTVGTTLAWYQQKPGQAPRLLIHGASTRATDIPDRFSGSGSGTEFTLTISSLQSEDFADYYCQQYKSWPPLTFGGGTKVEIK ... -1

Here's the next entry for you.
In plain terms: is recorded pKd at least 8 for 40566p1.C1 (scFv, V domains shown, tested as scFv-Fc supernatant) VH: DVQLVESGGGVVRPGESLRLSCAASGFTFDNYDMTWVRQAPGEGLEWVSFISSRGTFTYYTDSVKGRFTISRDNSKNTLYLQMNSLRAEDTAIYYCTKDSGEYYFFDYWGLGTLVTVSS VL: ETVMTQSPATLSVSPGERATFSCRASQSVNSKLAWYQQKPGQAPRLLIYGASRRATGIPDRFSGSGSGTEFTLTISSLQSEDFAVYYCQQYYDWPPLTFGGGTKVEIK ?
-1
